Hey, just so you know, these numbers are from PubChem BioAssay AID1259418.

Biological target: T. gondii ME49Luc in IFN-y HeLa, luciferase, 72 h
Assay: T. gondii growth inhibition with IFN-gamma, dose response, cell-based, ME49Luc, HeLa, luciferase, 72 h (AID 1259418)
Records with an inconclusive call do not appear.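 How the source made its calls: active means fitted half-maximal concentration of signal decrease at or below twice the sample's top tested concentration; inconclusive means flat curve between -70 and -30 percent, or poor fit; inactive means flat within 30 percent, signal rise, or potency above limit.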
Answer with one of the outcomes t for active, f for inactive

Previously resolved entries follow.
Compound	Cat
COc1ccc(-c2nc(NC3CC3)c3ccccc3n2)cc1	t
O=C(NCCc1csc(-c2ccccc2)n1)C1CCN(C(=O)Cc2cccc(F)c2)CC1	t
O=C(NCc1cccnc1)C1CCN(Cc2cc3ccccc3n2Cc2ccc(F)cc2)CC1	t
Cc1ccccc1Cn1c(CN2CCC(C(=O)NCCCN3CCCC3)CC2)cc2ccccc21	t

What outcome does the record of this test show for `CCOc1ccccc1N(Cc1nc(-c2ccccc2OC)oc1C)S(=O)(=O)c1cccs1` ?
t

====

Target: T. gondii ME49Luc in IFN-y HeLa, luciferase, 72 h
Assay: T. gondii growth inhibition with IFN-gamma, dose response, cell-based, ME49Luc, HeLa, luciferase, 72 h (AID 1259418)
Records with an inconclusive call do not appear. The source made the active and inactive calls.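 Rule for the calls: active = fitted half-maximal concentration of signal decrease at or below twice the sample's top tested concentration; inconclusive = flat curve between -70 and -30 percent, or poor fit; inactive = flat within 30 percent, signal rise, or potency above limit.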
Answer with one of the outcomes active, inactive

Structure String	Cat
Cc1nc(OCC(=O)Nc2c(C)cccc2C)c2ccccc2n1	active
O=S(=O)(c1ccc2c(c1)CCCC2)N1CCC2(CC1)NCCN=C2NC1CCCCC1	active
CS(=O)(=O)N1CC(=O)N2[C@H](CO)[C@@H](c3ccc(C#Cc4ccc(F)cc4)cc3)[C@H]2C1	active
COc1cccc(NC(=O)N2CC(=O)N3[C@@H](CO)[C@H](c4ccc(C#CCC5CCCC5)cc4)[C@@H]3C2)c1	active
Cc1oc(-c2cccc(Cl)c2)nc1CN1CCN(C(=O)Nc2ccc(Cl)cc2)CC1	active
CCOc1ccc(NC(=O)CN2CCC3(CC2)N=C(c2ccc(Cl)cc2)C(=O)N3)cc1	inactive
O=C(Nc1ccccc1F)N1CCCCN2[C@@H](CO)[C@@H](c3ccc(/C=C/c4ccccc4)cc3)[C@@H]2C1	active
COCC(=O)N1[C@@H](C#N)[C@H](c2ccc(C#CCC3CCCC3)cc2)[C@@H]1CO	active

What outcome does the record of this test show for `OC[C@@H]1Nc2ccc(-c3cccc(F)c3)cc2[C@@H]2[C@H]1CCN2Cc1ccc(F)cc1` ?
active

====

Biological target: T. gondii ME49Luc in IFN-y HeLa, luciferase, 72 h
Experiment: T. gondii growth inhibition with IFN-gamma, dose response, cell-based, ME49Luc, HeLa, luciferase, 72 h (AID 1259418)
Records with an inconclusive call do not appear. Calls of active or inactive are those of the source.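 Rule for the calls: active = fitted half-maximal concentration of signal decrease at or below twice the sample's top tested concentration; inconclusive = flat curve between -70 and -30 percent, or poor fit; inactive = flat within 30 percent, signal rise, or potency above limit.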
Answer with one of the outcomes class 1 = active, class 0 = inactive

Previously resolved entries follow.
Molecule	Target Entity	Cat
c1ccc(-c2noc(-c3ccc(N4CCC(N5CCCCC5)CC4)nc3)n2)cc1	T. gondii ME49Luc in IFN-y HeLa, luciferase, 72 h	class 1
CCOC(=O)c1ccc(NC(=O)N2CCN(Cc3nc(-c4ccc(C)cc4)oc3C)CC2)cc1	T. gondii ME49Luc in IFN-y HeLa, luciferase, 72 h	class 1
Cc1cc(C)cc(S(=O)(=O)N2CCC3(CC2)NCCN=C3NCc2ccc(F)cc2)c1	T. gondii ME49Luc in IFN-y HeLa, luciferase, 72 h	class 1
Fc1ccc(CSc2nc(NCc3ccc(Cl)cc3)c3ccccc3n2)cc1	T. gondii ME49Luc in IFN-y HeLa, luciferase, 72 h	class 1
O=C(CC1N=C2c3ccccc3N=C(SCc3ccc(Cl)cc3)N2C1=O)NCCc1ccccc1 (stereo not given)	T. gondii ME49Luc in IFN-y HeLa, luciferase, 72 h	class 1

What outcome does the record of this test show for `COc1ccccc1NC(=O)N1CCCCN2[C@H](C1)[C@@H](c1ccc(-c3cccc(C#N)c3)cc1)[C@@H]2CO` ?
class 1

Same for `COc1cc2nc(N3CCN(C(=O)c4ccco4)CC3)nc(N)c2cc1OC`
class 1

Same for `Cc1nc(OCC(=O)Nc2ccc(Cl)cc2)c2ccccc2n1`
class 0

Same for `O=C(c1ccccc1Cl)N1CCC2(CC1)Nc1cc(F)ccc1-n1cccc12`
class 0

Same for O=C(CC1N=C2c3ccccc3N=C(SCc3ccc(F)cc3)N2C1=O)NCCc1ccccc1 (stereo not given)
class 1
